Target: T1, cSNK:BSA conjugate (bovine, head-to-tail cyclized; conjugated to BSA carrier)
T1 construct: also called BSA-cSNK
T1 sequence (P02769 25-607 limits assumed): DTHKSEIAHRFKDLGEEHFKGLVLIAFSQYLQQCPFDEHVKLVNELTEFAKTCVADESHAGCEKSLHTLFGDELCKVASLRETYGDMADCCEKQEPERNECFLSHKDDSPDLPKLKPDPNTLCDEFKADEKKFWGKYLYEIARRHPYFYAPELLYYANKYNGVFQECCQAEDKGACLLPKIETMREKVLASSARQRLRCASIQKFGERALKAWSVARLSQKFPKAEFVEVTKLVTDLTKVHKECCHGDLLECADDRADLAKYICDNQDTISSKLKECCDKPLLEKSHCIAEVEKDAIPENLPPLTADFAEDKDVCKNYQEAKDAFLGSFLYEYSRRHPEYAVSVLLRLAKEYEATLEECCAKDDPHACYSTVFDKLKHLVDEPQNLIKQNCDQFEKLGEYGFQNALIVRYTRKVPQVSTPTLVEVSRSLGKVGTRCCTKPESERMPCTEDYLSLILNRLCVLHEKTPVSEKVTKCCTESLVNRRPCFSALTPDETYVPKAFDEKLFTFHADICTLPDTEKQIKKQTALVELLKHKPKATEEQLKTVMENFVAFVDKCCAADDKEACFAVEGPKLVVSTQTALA
Test: BLI (Octet), KD2
Listed next: entries and their corresponding Kd.
Report as a plain number; the unit nM is understood.

binder	property.label	test.result
5E3KCDR2-G81D (antibody, IgG1, V domains shown, hu5E3 IgG1 vector mutant; also called 5E3-G81D-AFF) VH: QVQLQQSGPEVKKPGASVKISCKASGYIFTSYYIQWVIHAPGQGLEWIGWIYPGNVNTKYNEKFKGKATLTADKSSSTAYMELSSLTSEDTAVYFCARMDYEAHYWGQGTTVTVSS VL: DIQMTQSPSSLSASVGDRVTITCRASQEISGYLTWLQQKPEGAIKRLIYAASTLDSDVPKRFSGSRSGSDYSLTISSLQPEDFATYNCLQYANYPRTFGGGTKLEIK	Kd	2.33

Q: What does the record list as Kd for 5E3KCDR3-N93Q + 5E3HCDR3-Y212F (antibody, IgG1, V domains shown, double combination in hu5E3 IgG1) VH: QVQLQQSGPEVKKPGASVKISCKASGYIFTSYYIQWVIHAPGQGLEWIGWIYPGNVNTKYNEKFKGKATLTADKSSSTAYMELSSLTSEDTAVYFCARMDYEAHFWGQGTTVTVSS VL: DIQMTQSPSSLSASVGDRVTITCRASQEISGYLTWLQQKPEGAIKRLIYAASTLDSGVPKRFSGSRSGSDYSLTISSLQPEDFATYNCLQYAQYPRTFGGGTKLEIK ?
Ans: 2.8

Q: What does the record list as Kd for 5E3KCDR2-A74D (antibody, IgG1, V domains shown, hu5E3 IgG1 vector mutant; also called 5E3-A74D-AFF) VH: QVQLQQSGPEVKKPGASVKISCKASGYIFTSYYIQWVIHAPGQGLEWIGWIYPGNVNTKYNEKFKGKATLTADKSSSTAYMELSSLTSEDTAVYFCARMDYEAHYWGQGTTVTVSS VL: DIQMTQSPSSLSASVGDRVTITCRASQEISGYLTWLQQKPEGAIKRLIYDASTLDSGVPKRFSGSRSGSDYSLTISSLQPEDFATYNCLQYANYPRTFGGGTKLEIK ?
Ans: 3.06
